# Tested on: NCI-H460
# run description: NCI tumour cell line growth inhibition, 48 h
Activity calls are given as the source filed them. Rule as the data show it: active = GI50 up to about 1.1 µM and inactive = higher.
Possible outcomes: active, inactive

- O=C(Nc1nnn[nH]1)c1nc(O)cc(-c2ccccc2)n1: inactive
- COc1ccc(OC)c(C(Cc2ccnc3ccccc23)Cc2ccnc3ccccc23)c1: inactive
- NN/C(Cc1ccccc1)=N\NO: inactive
- COc1c(C)cc2c(C(C)C)c(O)c(O)c(C=O)c2c1O: inactive
- C=CCNC(=S)N1CC(C)C(=O)Nc2cc(Cl)ccc21 (stereo unspecified): inactive
- O=C(CC1(O)C(=O)Nc2c(Cl)cc(Cl)cc21)c1ccccc1 (stereo unspecified): inactive
- COC(=O)[C@@H]1O[C@]12C(CO[Si](C)(C)C(C)(C)C)OC(n1ccc(=O)[nH]c1=O)C2O[Si](C)(C)C(C)(C)C (stereo partly specified): inactive
- COc1cc2c(NCCCCCO)ncnc2c(OC)c1OC: inactive
- CC1=CC(=O)NP(=O)(C23CC4CC(CC(C4)C2)C3)N1 (stereo unspecified): inactive
- CCCCCCCCCC/C=C/CC(=O)SCCNC(=O)CCNC(=O)[C@@H](O)C(C)(C)COP(=O)(O)OP(=O)(O)OCC1OC(n2cnc3c(N)ncnc32)C(O)C1OP(=O)(O)O (stereo partly specified): inactive
- COC(=O)C1=C(C(=O)OC)SC2(S1)C(C(=O)OC)=C(C(=O)OC)Sc1c2ssc1=O: inactive
- CN1c2ccccc2C(=O)NC12CCN(CC1COc3ccccc3O1)CC2 (stereo unspecified): inactive
- Cc1c2cc[n+](Cc3ccc(I)cc3)cc2c(C)c2c1[nH]c1ccccc12: active
- O=C1NCN(c2ccccc2)C12CCN(CCCSc1ccc(F)cc1)CC2: inactive
- Nc1ccc(C(=O)NN2C(=O)[C@H](Cl)C2c2ccc(Cl)cc2)cc1 (stereo partly specified): inactive
- CC(C)(C)C1=NC(=S)SC2=NC(=O)C3(NN21)c1ccccc1-c1ccccc13: inactive
- CCOC(=O)Cc1cc(=O)[nH]c(-n2[nH]c(C)c(CCO)c2=O)n1: inactive
- C/C(=N\NC(=O)C[n+]1ccccc1)c1sc(-c2nc(C)c(/C(C)=N/NC(=O)C[n+]3ccccc3)s2)nc1C: inactive
- CCC12CCCN3CCc4c(n(c5ccccc45)C(O)(C(=O)OC)C1)C32 (stereo unspecified): inactive
- COC(=O)c1c(O)ccc2c1c1c(n2Cc2cccc(C)c2)C(=O)c2ccccc2C1=O: inactive
- O=C(O)CNC(=O)c1c2ccccc2nc2ccccc12: inactive

---

# Test system: SK-MEL-2
# run description: NCI tumour cell line growth inhibition, 48 h
The source made the active and inactive calls. Rule as the data show it: active = GI50 up to about 1.1 µM and inactive = higher. Where a SMILES comes first, the peptide text is derived from it. [ ]: non-standard residue; d: D form. Phe(4-NO2) = N[CH](Cc1ccc([N+](=O)[O-])cc1)C(=O)O
Possible outcomes: 1 = active, 0 = inactive

* Cc1c(C(=O)CSc2nc3ccccc3[nH]2)c(=O)n(-c2ccccc2)n1C | 0
* CCN1CC2=C(NC(=S)NC2c2ccc(Cl)cc2)/C(=C/c2ccc(Cl)cc2)C1 (stereo not drawn) | 0
* COc1ccc(C(=O)c2sc(Nc3ccccc3)nc2N)cc1 | 0
* CCOC(=O)Cc1cc(=O)[nH]c(-n2[nH]c(C)c(CCO)c2=O)n1 | 0
* C=C1c2ccccc2C(=O)c2c1c1c(C(=O)OC)c(O)ccc1n2Cc1ccccc1 | 1
* COc1cc(/C=C(\C#N)c2ccccn2)cc(Br)c1O | 0
* CC1(C)CC(=O)c2c(oc3cc(O)c(O)cc23)C1 | 0
* CCCCC(C(=O)CCC(=O)Nc1ccc(Cl)c(Cl)c1)C(=O)C(C)C (stereo not drawn) | 0
* COc1cc2c(c(OC)c1OC)-c1ccc(SC)c(=O)cc1C(NC(=O)c1ccccc1)CC2 (stereo not drawn) | 1
* COc1ccc(NC(=O)/C(=N\NC(=O)C[n+]2ccccc2)c2c(O)c3ccc(O)cc3oc2=O)c([N+](=O)[O-])c1 | 0
* CC(=O)Nc1ccc(C(=O)NN2C(=O)C(Cl)C2c2ccc(O)cc2)cc1 (stereo not drawn) | 0
* COC(=O)CNC(=O)CCC(C)[C@H]1CCC2C3C(C[C@H](OC(C)=O)[C@@]21C)[C@@]1(C)CCC2(C[C@H]1C[C@H]3OC(C)=O)OOC1(CCCCC1)OO2 (stereo partly drawn) | 0
* CCCC(=O)N/S(=N/S(=O)(=O)c1ccc(Cl)cc1)C(Cl)(Cl)Cl (stereo not drawn) | 0
* O=C(NCCc1ccccn1)c1ccc2cc(C(=O)N3CC(CCl)c4ccc([N+](=O)[O-])cc43)[nH]c2c1 (stereo not drawn) | 0
* O=[N+]([O-])c1nccn1COCCBr | 0
* CN(N=O)C(=O)Nc1c[nH]c(=O)[nH]c1=O | 0
* COC(=O)CCC(NC(=O)C(CCC(=O)OC)NC(=O)C(CCC(=O)OC)NC(=O)C(CCC(=O)OC)NC(=O)C(CCC(=O)OC)NC(=O)C(Cc1ccc([N+](=O)[O-])cc1)NC(=O)C(CCC(=O)OC)NC(=O)C(CCC(=O)OC)NC(=O)C(CCC(=O)OC)NC(=O)C(CCC(=O)OC)NC(=O)C(CCC(=O)OC)NC(C)=O)C(N)=O (stereo not drawn) (Ac-E(OMe)E(OMe)E(OMe)E(OMe)E(OMe)[Phe(4-NO2)]E(OMe)E(OMe)E(OMe)E(OMe)E(OMe)-NH2; configuration not given here) | 0
* COc1cc(C2(c3ncc[nH]3)SSSCC2O)ccc1O (stereo not drawn) | 0

---

# Tested on: UACC-257
# run description: NCI tumour cell line growth inhibition, 48 h
Calls of active or inactive are those of the source. Rule as the data show it: active = GI50 up to about 1.1 µM and inactive = higher. Where a SMILES comes first, the peptide text is derived from it. The star is where a group is joined. ONb = O=[N+]([O-])c1ccc(CO*)cc1; Boc = CC(C)(C)OC(=O)*
Recorded GI50, one value per entry.
readout: GI50

- C=C1C(=O)OC2/C=C(\CO)C3OC3C3OC3(C)CC(OC(=O)/C(=C/C)COC(C)=O)C12 (stereo not drawn): 3.84 µM (inactive)
- O=C1C=C(NCCc2ccccc2)c2ccccc2C1=O: 1.53 µM (inactive)
- Cc1c(C(=O)CSc2nc3ccccc3[nH]2)c(=O)n(-c2ccccc2)n1C: > 100 µM (inactive)
- C=CCNC(=S)N1CC(C)C(=O)Nc2cc(Cl)ccc21 (stereo not drawn): > 100 µM (inactive)
- CCc1cc(Cc2ccc(C)c(NC(=O)C(=O)C3C(=O)NC(=O)NC3=O)c2CC)cc(C)c1NC(=O)C(=O)C1C(=O)NC(=O)NC1=O: > 100 µM (inactive)
- O=C(NCCc1ccccn1)c1ccc2cc(C(=O)N3CC(CCl)c4ccc([N+](=O)[O-])cc43)[nH]c2c1 (stereo not drawn): > 46.3 µM (inactive)
- COC(C)(C)C1(O)CC[C@@H](C)CC1=O (stereo partly drawn): > 100 µM (inactive)
- CC(C)C[C@H]1[C@@H](OCc2ccccc2)COS(=O)(=O)N1[C@H](C)c1ccccc1: 20 µM (inactive)
- Cc1cc(N(CCC#N)S(=O)(=O)c2ccccc2)ccc1/C=C1N=C(/C=C/c2ccccc2)OC\1=O: > 100 µM (inactive)
- O=C(O)CCc1coc2ccc(O)cc12: > 100 µM (inactive)
- Cc1nnc(S(=O)(=O)c2ccc(/N=N/c3c(N)nc(N)nc3N)cc2)s1: > 100 µM (inactive)
- O=C1c2ccccc2C(=O)N1C(=S)c1ccccc1: > 100 µM (inactive)
- CCOC(=O)CSc1nc2ccccc2c(=O)n1N: > 100 µM (inactive)
- CC(C)CC(NC(=O)OC(C)(C)C)C(=O)NC(CCC(=O)OCc1ccc([N+](=O)[O-])cc1)C(=O)OCc1ccc([N+](=O)[O-])cc1 (stereo not drawn) (Boc-Leu-Glu(ONb)-ONb; configuration not given here): 43.8 µM (inactive)
- COc1cc(C2c3cc4c(cc3OC3(O)COC(=O)C23)OCO4)cc(OC)c1OC (stereo not drawn): 55 µM (inactive)
- OC1(c2ccccc2)C2CCN(CC2)C1CN1CCOCC1 (stereo not drawn): > 100 µM (inactive)
- CC1OC(OC2C(O[C@@H]3C[C@@H]4CC[C@@H]5[C@H](CC[C@]6(C)C7C(C[C@@H]56)O[C@]5(CC[C@@H](C)CO5)[C@H]7C)[C@@]4(C)C[C@H]3O)OC(CO)C(O)C2O)C(O)C(O)C1O (stereo partly drawn): 1.86 µM (inactive)
- CCOC(=O)Cc1cc(=O)[nH]c(-n2[nH]c(C)c(CCO)c2=O)n1: > 100 µM (inactive)

---

# System: A498
# run description: NCI tumour cell line growth inhibition, 48 h
Calls of active or inactive are those of the source. Rule as the data show it: active = GI50 up to about 1.1 µM and inactive = higher.
readout: GI50

* CC1(C)CC(=O)C(=CNc2nc(-c3cccc([N+](=O)[O-])c3)cs2)C(=O)C1 | 13.8 µM (inactive)
* Clc1ccc(Cl)c(/N=N\c2cc3c4c(c2)CCN4CCC3)c1 | > 10 µM (inactive)
* O=C(/C=C1\Sc2ccccc2N=C1CC(=O)c1ccccc1)c1ccccc1 | 31.8 µM (inactive)
* C=CCNC1=C(C(=O)OCC)C(=O)CO1 | > 100 µM (inactive)
* O=C(O)CNS(=O)(=O)c1ccc(NC(=O)Nc2ccccc2)cc1 | > 100 µM (inactive)
* CC(=O)Nc1cc2nc3n(c2cc1C)CCC3OC(C)=O (stereo unspecified) | > 100 µM (inactive)
* Cc1cc(=O)nc(Sc2ccc([N+](=O)[O-])cc2[N+](=O)[O-])[nH]1 | > 100 µM (inactive)
* CC(C)=C1C(=O)C[C@]2(C)C/C=C(\C)CC/C=C(\C)CC[C@@H]12 | 20.8 µM (inactive)
* CC(C)C1NC(=O)CC(c2ccccc2)N(N=O)C1c1ccccc1 (stereo unspecified) | > 100 µM (inactive)
* CC(=O)NC(CCCCN)C(=O)NCc1ccccc1 (stereo unspecified) | > 100 µM (inactive)
* CCCCP1(=O)C=CC(Cl)=C(C)C1 (stereo unspecified) | > 100 µM (inactive)
